# method notes: qHTS RealTime-Glo MT Cell Viability Assay in HEK293 cells - 24 hour (AID 1224886); note: nearly all actives have a fitted effect of over 50% in size; note: potency is the fitted concentration of half-maximal effect
# study conditions: RealTime-Glo luminescence; series mostly up to 76.8 µM
# From the text: National Center for Advancing Translational Sciences [NCATS] NIH Chemical Genomics Center [NCGC] U.S. Environmental Protection Agency [EPA] National Institutes of Environmental Health Sciences [NIEHS] National Toxicology Program [NTP] U.S. Food and Drug Administration [FDA] Measure of cell viability is critical in the cell-base assay. Analysis of cell viability is necessary for the characterization of cell responses to cytotoxic drugs and environmental stress. […]
Results filed as inconclusive are left out. The source made the active and inactive calls. Calls come from the whole dose curve; as a rule, active = well fitted cell-killing curve with a large enough effect in the repeat runs; inconclusive = weak or mixed curves, or effect the other way; inactive = flat fitted curve, though single readings scatter.
measured metric: Potency

CC1(CN2CCC(n3c(=O)[nH]c4ccccc43)CC2)OCc2ccccc2-n2cccc21 (centres undefined) | 19 µM (active)
CN(C(=O)CN(CCO)CC(=O)N(C)C(C)(C)Cc1ccccc1)C(C)(C)Cc1ccccc1 | 19 µM (active)
CCCCCCCCC(CCCCCC)C(=O)O (centres undefined) | inactive
c1ccc(C[n+]2cccc3ccccc32)cc1 | inactive
C=C(C)C(=O)OCCCCCCCCCCCCC | inactive
CC(C)C[C@H](NC(=O)[C@H](CCc1ccccc1)NC(=O)CN1CCOCC1)C(=O)N[C@@H](Cc1ccccc1)C(=O)N[C@@H](CC(C)C)C(=O)[C@@]1(C)CO1 | 0.0674 µM (active)
C=CCc1ccccc1OCC(O)CNC(C)C (centres undefined) | inactive
C=Cc1ccc(S(=O)(=O)O)cc1 | inactive
C[C@]1(Cn2ccnn2)[C@H](C(=O)O)N2C(=O)C[C@H]2S1(=O)=O | inactive
CN1C(=O)N(c2ccccc2Br)Cc2cnc(Nc3ccc4c(c3)OCC(CO)O4)nc21 (centres undefined) | 6.92 µM (active)
O=C1c2ccccc2C(=O)C1c1ccc(Br)cc1 | inactive
O=c1cc(-c2ccccc2)oc2ccc3ccccc3c12 | inactive
CC(C)(c1ccccc1)c1ccccc1 | inactive
Cc1ccc(Cl)c(Nc2ccccc2C(=O)O)c1Cl | inactive
CCN(CC)CCNC(=O)COc1ccc(OC)cc1 | inactive
C=CC(=O)[O-].C=CC(=O)[O-].[Zn+2] | inactive
CC(CN(C)C)C(C)(O)Cc1ccc(Cl)cc1 (centres undefined) | inactive
O=C1Cc2cc(Cl)ccc2N1 | inactive
CC(C)(C)C(=O)C(=O)O | inactive
COc1ccccc1NC(=O)c1cc2ccccc2cc1O | 34.7 µM (active)
CCC(C)COC(C)=O (centres undefined) | inactive
O=C(/C=C/c1ccc(O)c(O)c1)O[C@@H]1C[C@@](OC(=O)/C=C/c2ccc(O)c(O)c2)(C(=O)O)C[C@@H](O)[C@@H]1O | inactive
Nc1cccc2c1CN(C1CCC(=O)NC1=O)C2=O (centres undefined) | inactive
O[C@@H]1CO[C@H]2[C@@H]1OC[C@@H]2O | inactive
OCCN1CCN(CCCN2c3ccccc3Sc3ccc(Cl)cc32)CC1 | 23.9 µM (active)
CC1(C)[C@H](C(=O)O)N2C(=O)C[C@H]2S1(=O)=O | inactive
O=C(O)CCC(=O)C(=O)O | inactive
CC(C)=CCC1C(=O)N(c2ccccc2)N(c2ccccc2)C1=O | inactive
C=C1CCC2CC1C2(C)C (centres undefined) | inactive
O=C(CCc1ccc(O)cc1)c1c(O)cc(O)cc1O | 39.8 µM (active)
CCC(C)(C)OC | inactive
Cc1ccccc1S | inactive
CCOC(=O)c1ccc(OCCN2C[C@H](O)[C@@H](O)[C@H](O)[C@H]2CO)cc1 | inactive
O=[N+]([O-])c1ccc(Nc2ccc(Nc3ccccc3)c(S(=O)(=O)O)c2)c([N+](=O)[O-])c1 | inactive
CCCCCCNC(=O)n1cc(F)c(=O)[nH]c1=O | inactive
O=C(O)c1ccc(OCCCOc2ccc(C(=O)O)cc2)cc1 | inactive
C[C@@H](O[C@H]1OCCN(Cc2n[nH]c(=O)[nH]2)[C@H]1c1ccc(F)cc1)c1cc(C(F)(F)F)cc(C(F)(F)F)c1 | 16.9 µM (active)
CC(=O)OCC[N+](C)(C)C | inactive
NC1[C@H]2CN(c3nc4c(cc3F)c(=O)c(C(=O)O)cn4-c3ccc(F)cc3F)C[C@@H]12 (some centres undefined) | inactive
C[C@@H]1CN(CCCn2c3ccccc3c3ccccc32)C[C@H](C)N1 | 23.9 µM (active)
CN1C(C(=O)Nc2ccccn2)=C(O)c2sccc2S1(=O)=O | inactive
C=C/C(C)=C/C/C=C(\C)CCC=C(C)C | inactive
O=C=Nc1ccc(Cl)c(Cl)c1 | inactive
C[C@@H]1CC(=O)NN=C1c1ccc(NN=C(C#N)C#N)cc1 | inactive
C(=C\c1ccccc1)/c1ccccc1 | inactive
CCC=CC#N | inactive
CO/N=C(/C(=O)N[C@@H]1C(=O)N2C(C(=O)O)=C(COC(N)=O)CS[C@H]12)c1ccco1 | inactive
COc1ncnc(NS(=O)(=O)c2ccc(N)cc2)c1OC | inactive
O=C1c2ccccc2C(=O)c2c(O)c(O)cc(O)c21 | inactive

---

# System: thyroid hormone receptor (rat, GH3 cells)
# method notes: qHTS assay to identify small molecule agonists of the thyroid receptor (TR) signaling pathway (AID 743066)
# study conditions: GH3.TRE-Luc cells, TR agonist luciferase, 24 h; series mostly up to 83.9 µM
Inconclusive results are not listed. Active and inactive are the calls of the source. The call rests on the fitted dose curve.
measured metric: outcome

O=c1cc(-c2ccccc2)oc2ccc3ccccc3c12 | inactive
CCC1CO1 (centres undefined) | inactive
CCC=CC#N | inactive
CC1=C(CC=O)C(C)(C)CCC1 | inactive
CC(=O)[C@H]1[C@H](C#N)C[C@H]2[C@@H]3CC=C4C[C@@H](O)CC[C@]4(C)[C@H]3CC[C@@]21C | inactive
C=C1CCC2CC1C2(C)C (centres undefined) | inactive
OC(CCN1CCCC1)(c1ccccc1)C1CCCCC1 (centres undefined) | inactive
CCCCC(CC)CN (centres undefined) | inactive
C=CC(=O)OCC1CC2CC1C1CCC(COC(=O)C=C)C21 (centres undefined) | inactive

---

# test system: Aromatase (Homo sapiens) (UniProt P11511)
# Sequence (P11511 whole entry, looked up): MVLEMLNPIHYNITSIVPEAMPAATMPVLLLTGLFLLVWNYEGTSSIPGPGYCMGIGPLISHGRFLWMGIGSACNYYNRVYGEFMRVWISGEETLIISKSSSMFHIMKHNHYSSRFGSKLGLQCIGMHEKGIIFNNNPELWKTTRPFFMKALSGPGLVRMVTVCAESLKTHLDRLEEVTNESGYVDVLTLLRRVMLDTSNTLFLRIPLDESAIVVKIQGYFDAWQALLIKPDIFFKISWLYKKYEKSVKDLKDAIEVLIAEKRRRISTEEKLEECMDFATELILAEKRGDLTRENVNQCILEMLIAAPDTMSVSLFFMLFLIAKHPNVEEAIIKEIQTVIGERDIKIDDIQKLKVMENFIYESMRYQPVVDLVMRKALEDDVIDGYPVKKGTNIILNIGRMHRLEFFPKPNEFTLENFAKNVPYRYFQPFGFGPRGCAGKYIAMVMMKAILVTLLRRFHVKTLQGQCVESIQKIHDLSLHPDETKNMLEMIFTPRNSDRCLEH
# method notes: qHTS assay to identify aromatase inhibitors (AID 743083); note: nearly all actives have a fitted effect of over 55% in size
# study conditions: MCF-7 aro ERE, testosterone-driven ERE luciferase, 24 h; series mostly up to 70.3 µM
Results filed as inconclusive are left out. The source made the active and inactive calls. The call rests on the fitted dose curve; in most records, active means well fitted inhibition curve with a large enough effect in the repeat runs; inconclusive means weak or mixed curves; inactive means no such curve, though single readings can be large or run the other way.
Labels: true (active), false (inactive)

Cc1ccco1 | false
CCC(C)COC(=O)CC(C)C (stereo not drawn) | false
CC1(C)[C@H](C(=O)O)N2C(=O)C[C@H]2S1(=O)=O | false
COc1ccccc1Oc1c(NS(=O)(=O)c2ccc(C(C)(C)C)cc2)nc(-c2ncccn2)nc1OCCO | false
O=C(/C=C/c1ccccc1)OCCc1ccccc1 | false
CCC1CO1 (stereo not drawn) | false
C/C=C\C/C=C/CCCCCCCCOC(C)=O | false
CC(C)(c1ccccc1)c1ccccc1 | false
c1ccc2c(c1)CCc1ccccc1N2 | false
CCC(C)COC(C)=O (stereo not drawn) | false
O=C(OC(=O)c1ccccc1)c1ccccc1 | false
CCC1NC(=O)c2cc(S(N)(=O)=O)c(Cl)cc2N1 (stereo not drawn) | false
CN1CCCC(CC2c3ccccc3Sc3ccccc32)C1 (stereo not drawn) | false
C=C(C)C(=O)OCCOCCOC(=O)C(=C)C | false
CC(=O)Nc1ccc(C)cc1C | false
CN(C)CCN1C(=O)c2ccccc2N(C)c2ccccc21 | false
CCOc1ccccc1O[C@H](c1ccccc1)[C@H]1CNCCO1 | false
CCCCCCCC/C=C\CCCCCCCCCCCC(=O)O | false
CC1CC(OC(=O)C(O)c2ccccc2)CC(C)(C)N1C (stereo not drawn) | false
NCCNCCO | false
CCOC(=O)[C@H](CCc1ccccc1)N[C@@H](C)C(=O)N(CC(=O)O)C1Cc2ccccc2C1 | false
CO[C@]1(NC(=O)CSC(F)F)C(=O)N2C(C(=O)O)=C(CSc3nnnn3CCO)CO[C@H]21 | false
CCOC(=O)C1=C(C)NC(C)=C(C(=O)OC)C1c1cccc(Cl)c1Cl (stereo not drawn) | false
O=c1[nH]ncc2ccccc12 | false
CCCCCCCCCCC(=O)O | false
OC(CCN1CCCC1)(c1ccccc1)C1CCCCC1 (stereo not drawn) | false
CCCCOc1ccc(OCCCN2CCOCC2)cc1 | false
Cc1ccccc1S | false
c1ccc2sc(SN(C3CCCCC3)C3CCCCC3)nc2c1 | false
Cc1ccc(Cl)c(Nc2ccccc2C(=O)O)c1Cl | false
CCCCCC[C@@H](O)C/C=C\CCCCCCCC(=O)O | false
COc1ccccc1N1CCN(CCCCNC(=O)c2ccc(-c3ccc(C(C)=O)cc3)cc2)CC1 | false
CC(C)c1nc(CN(C)C(=O)N[C@H](C(=O)N[C@@H](Cc2ccccc2)C[C@H](O)[C@H](Cc2ccccc2)NC(=O)OCc2cncs2)C(C)C)cs1 | false
N#CCc1ccc(Cl)cc1Cl | false
O=Cc1c2ccccc2c(Cl)c2ccccc12 | false
C=C(C)C(=O)OCCCCCCCCCCCCC | false
CCCCCCCCCCCCCCN(CCO)CCO | true
CC(=O)[C@H]1[C@H](C#N)C[C@H]2[C@@H]3CC=C4C[C@@H](O)CC[C@]4(C)[C@H]3CC[C@@]21C | false
CCCCCCC(C)(C)C(=O)O | false
CCC1(CO)COCOC1 | false
CC=C(Cl)Cl | false
CC(=O)Nc1cc(S(=O)(=O)O)cc2cc(S(=O)(=O)O)c(N=Nc3ccccc3)c(O)c12 | false
N#CCCN(CCO)CCO | false
O=C=Nc1ccc(Cl)c(Cl)c1 | false
CC(=O)c1ccc([N+](=O)[O-])cc1 | false
C=CC(C)(CCC=C(C)C)OC(=O)CC(C)C (stereo not drawn) | false
CC(C)C[C@H](NC(=O)[C@H](CCc1ccccc1)NC(=O)CN1CCOCC1)C(=O)N[C@@H](Cc1ccccc1)C(=O)N[C@@H](CC(C)C)C(=O)[C@@]1(C)CO1 | true
Nc1ncnc2c1ncn2[C@H]1CC[C@@H](CO)O1 | false
O=C1NCCN1CCO | false
COc1cc(C(=O)NCCCCCC(=O)O)cc(OC)c1OC | false
Clc1cc(Cl)nc(Cl)n1 | false
CN1C(=O)c2ccccc2C1=O | false
C=C/C(C)=C/C/C=C(\C)CCC=C(C)C | false
